test: Cmax in mouse at 10 mg/kg, po; type: ADME, organism-based; set-up: dose 10 mg/kg, route oral; conditions: in vivo

| Substance smiles | Cmax [µM] |
| --- | --- |
| CCCCc1nc(=O)cc(O)n1-c1c(C)cccc1OC | 1.68 |
| CCCSc1nc(=O)cc(O)n1-c1ccccc1OC | 4.4 |

---

target: Nuclear receptor subfamily 1 group I member 2 (Homo sapiens, UniProt O75469); experiment: Agonist activity at PXR (unknown origin)
Sequence (O75469 whole entry): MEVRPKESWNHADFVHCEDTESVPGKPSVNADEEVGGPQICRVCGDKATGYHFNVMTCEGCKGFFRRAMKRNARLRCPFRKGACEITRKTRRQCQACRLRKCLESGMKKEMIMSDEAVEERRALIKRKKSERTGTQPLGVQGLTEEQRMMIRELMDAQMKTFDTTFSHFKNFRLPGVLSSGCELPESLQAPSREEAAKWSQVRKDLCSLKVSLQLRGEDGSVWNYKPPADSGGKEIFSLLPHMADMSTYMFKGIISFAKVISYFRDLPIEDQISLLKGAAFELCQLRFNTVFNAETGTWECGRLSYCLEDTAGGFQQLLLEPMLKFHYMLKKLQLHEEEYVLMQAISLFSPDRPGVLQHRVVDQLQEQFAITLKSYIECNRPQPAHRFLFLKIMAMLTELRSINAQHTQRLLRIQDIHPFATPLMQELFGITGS
Below: a set of entries, each annotated with reported EC50.
Property name: EC50

| Substance smiles | System under test | Property name | Reported measurement |
| --- | --- | --- | --- |
| CCCCc1nc(=O)cc(O)n1-c1c(C)cccc1OC | Nuclear receptor subfamily 1 group I member 2 (Homo sapiens, UniProt O75469) | EC50 | > 14 µM |
| CCCSc1nc(=O)cc(O)n1-c1ccccc1OC | Nuclear receptor subfamily 1 group I member 2 (Homo sapiens, UniProt O75469) | EC50 | > 50 µM |
